STUDY_TARGET: human NKp30 (human) (UniProt O14931)
Sequence (O14931 19-135 limits assumed): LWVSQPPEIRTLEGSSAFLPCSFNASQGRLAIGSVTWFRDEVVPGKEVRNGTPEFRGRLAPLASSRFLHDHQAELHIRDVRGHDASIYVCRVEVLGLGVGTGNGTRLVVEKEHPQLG
ASSAY_NOTES: BLI, immunoligand on anti-hFc tip
Entries annotated with measured koff
Answer with a number only, understood to be in s⁻¹.

BINDER	READING_UNIT	koff
ΔB7-H6_S2#14-SEED-PGLALA (bispecific antibody, part only; not given: SEED Fc chains and hu225 Fab, part only) chain, part: DLKVEMMAGGTQITPLNDNVTIFCNIFYSQPLNITTMGITWFWKSLTFDKEVKVFEFFGDHQEAFRPGAIVSPWRLKSGDASLRLPGIQLEEAGEYRCEVVVTPYKAQGTVQLEVVASPAS	s⁻¹	0.124
ΔB7-H6_S3#18-SEED-PGLALA (bispecific antibody, part only; not given: SEED Fc chains and hu225 Fab, part only) chain, part: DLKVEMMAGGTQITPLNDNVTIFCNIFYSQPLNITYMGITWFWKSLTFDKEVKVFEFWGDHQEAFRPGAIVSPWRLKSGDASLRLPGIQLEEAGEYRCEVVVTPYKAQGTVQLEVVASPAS	s⁻¹	0.0136
ΔB7-H6_S2#1-SEED-PGLALA (bispecific antibody, part only; not given: SEED Fc chains and hu225 EGFR Fab, part only) chain, part: DLKVEMMAGGTQITPLNDNVTIFCNIFYSQPLNITSMGITWFWKSLTFDKEVKVFEFYGDHQEAFRPGAIVSPWRLKSGDASLRLPGIQLEEAGEYRCEVVVTPYKAQGTVQLEVVASPAS	s⁻¹	0.078

Task: Item ΔB7-H6_S3#32-SEED-PGLALA (bispecific antibody, part only; not given: SEED Fc chains and hu225 EGFR Fab, part only) chain, part: DLKVEMMAGGTQITPLNDNVTIFCNIFYSQPLNITEMGITWFWKSLTFDKEVKVFEFWGDHQEAFRPGAIVSPWRLKSGDASLRLPGIQLEEAGEYRCEVVVTPVKAQGTVQLEVVASPAS has what recorded koff?
Result: 0.0766
